Examples of compounds with documented activation follow.
assay: qHTS assay for environmental chemicals that activate the Aryl hydrocarbon Receptor (AhR) signaling pathway (AID 651777); conditions: 1A2-DRE human hepatoma cells, luciferase, 24 h; active compounds read high; also: % of control where 0% means no effect; nearly all actives have a fitted effect of over 15% in size
Records with an inconclusive call do not appear.
Kindly answer with a numeric value in %, unit omitted.

Some compounds with known activation results, for comparison:
[
  {
    "Compound": "CNC(=O)Oc1cc(C)c(SC)c(C)c1",
    "activation (%)": 0.0661
  },
  {
    "Compound": "O=[As](O)(O)O",
    "activation (%)": -0.386
  },
  {
    "Compound": "Cc1cc(Cl)ccc1O[C@H](C)C(=O)O",
    "activation (%)": -2.24
  }
]

Proceeding to the next compound to report its activation.
Tell me its activation given O=C1c2ccccc2C(=O)C1C(=O)C(c1ccccc1)c1ccc(Cl)cc1 (stereo not drawn) as the entry.
3.58

Data origin: PubChem BioAssay (NCATS)
